# Read-out: Lipase C (LIPC), LIPC (gene 3990)
# EXPERIMENT_NOTES: LTEA_HepaRG_LIPC: Life Technologies and Expression Analysis (LTEA) Assay for Lipase C (LIPC) using HepaRG (AID 2283514)
# ASSAY_CONDITIONS: mRNA level, 48 h; actives raise or lower the signal
Activity calls are given as the source filed them. Rule for the calls: active = hit-call score of the fitted dose curve at least 0.9, where 1 is the maximum; inactive = score below 0.9.
ASSAY_ENDPOINT: AC50

SMILES_CODE | AC50
Cc1ccccc1CO[C@@H]1C[C@@]2(C(C)C)CC[C@]1(C)O2 | inactive
O=C(O)C(F)(F)C(F)(F)C(F)(F)C(F)(F)C(F)(F)C(F)(F)C(F)(F)C(F)(F)F | 94.5 µM (active)
CCOC(=O)C(O)(c1ccc(Cl)cc1)c1ccc(Cl)cc1 | inactive
CN(C)CCO | inactive
Cc1ccc(O)c(C)c1 | inactive

Alright, here's another molecule for you.
INPUT: Could you share which AC50 value was measured for "CC#Cc1cc(C)nc(Nc2ccccc2)n1" ?
OUTPUT: 15.3 µM (active)

---

# Read-out: Thyroid Hormone Responsive (THRSP), THRSP (gene 7069)
# EXPERIMENT_NOTES: LTEA_HepaRG_THRSP: Life Technologies and Expression Analysis (LTEA) Assay for Thyroid Hormone Responsive (THRSP) using HepaRG (AID 2283536)
# ASSAY_CONDITIONS: mRNA level, 48 h; actives raise or lower the signal
The source made the active and inactive calls. Rule for the calls: active = hit-call score of the fitted dose curve at least 0.9, where 1 is the maximum; inactive = score below 0.9.
Field 'call' accepts yes for active, no for inactive

For orientation, consider the following solved cases.
MOLECULE | ASSIGNED_CATEGORY
COS(=O)(=O)OC | no
O=NN(c1ccccc1)c1ccccc1 | no
O=C(NC(=O)c1c(F)cccc1F)Nc1cc(Cl)c(OC(F)(F)C(F)F)c(Cl)c1 | yes
Clc1ccc(C(c2ccccc2Cl)C(Cl)(Cl)Cl)cc1 (centres undefined) | yes
NS(=O)(=O)C(F)(F)C(F)(F)C(F)(F)C(F)(F)C(F)(F)C(F)(F)C(F)(F)C(F)(F)F | yes
O=C(N[C@H]1CN2CCC1CC2)c1cc2ccoc2cn1 | no

INPUT: For "CCC(C)(c1ccc(O)cc1)c1ccc(O)cc1" , which call appears in the assay record?
OUTPUT: yes

INPUT: Test call, this molecule: "Oc1c(Cl)c(Cl)c(Cl)c(Cl)c1Cl"
OUTPUT: yes

INPUT: // outcome(item) with item = "CCC(C)(CC)c1cc(NC(=O)c2c(OC)cccc2OC)on1"
OUTPUT: yes

---

# TGT: Estrogen receptor beta (Homo sapiens)
# EXPERIMENT_NOTES: OT_ER_ERbERb_1440: Odyssey Thera (OT) 24-hour HEK293T Protein-Complementation Assay for Estrogen Receptor-beta/-beta Homodimer (AID 2283380);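 note: fluorescence gain from ER beta LBD homodimer complementation read by laser scanning cytometry; scored as signal increase over DMSO baseline for both agonists and antagonists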
Active and inactive are the calls of the source. Rule for the calls: active = hit-call score of the fitted dose curve at least 0.9, where 1 is the maximum; inconclusive = response in the unintended direction; inactive = score below 0.9.
ASSAY_ENDPOINT: outcome

Look over these answered cases.
COMPOUND | outcome
CC(C)C(=O)OCC(C)(C)C(OC(=O)C(C)C)C(C)C (stereo unspecified) | inactive
CCC(C)c1cc([N+](=O)[O-])cc([N+](=O)[O-])c1O (stereo unspecified) | inactive
N#Cc1ccc(N(CC(N)=O)CC(F)(F)F)cc1C(F)(F)F | inactive
CC(C)(O)C(=O)Nc1ccc([N+](=O)[O-])c(C(F)(F)F)c1 | inactive
Clc1ccc(Cl)cc1 | inactive

Now consider a different compound.
INPUT: Data request, read-out outcome, for "CCCN(CCC)N=O"
OUTPUT: inactive

---

# EXPERIMENT_NOTES: Tanguay_ZF_120hpf_TR_legacy: (Legacy) Oregon State University Tanguay Lab 120 Hour Post-fertilization zebrafish Assay for Touch Response (AID 2283667)
Inconclusive results are not listed. Activity calls are given as the source filed them. Rule for the calls: active = hit-call score of the fitted dose curve at least 0.9, where 1 is the maximum; inconclusive = response in the unintended direction; inactive = score below 0.9.
API: response.call in true for active, false for inactive

SMILES_CODE | ASSIGNED_CATEGORY
Nn1cnnc1 | false
CN(C)CCO | false
CCOP(=S)(OCC)SCSC(C)(C)C | false
Clc1ccc(Cl)cc1 | false
COc1ccc(O)c(C(C)(C)C)c1 | false
CCC(=O)O[C@H]1CC[C@H]2[C@@H]3CCC4=CC(=O)CC[C@]4(C)[C@H]3CC[C@]12C | false
CCCCCCCCCC[N+](C)(C)CCCCCCCCCC | false
CCCCCCCCCc1ccc(O)cc1 | false
Oc1ccc(Cl)cc1Cl | false
C[C@]12CCC(=O)C=C1CC[C@@H]1[C@@H]2CC[C@@]2(C)[C@H]1CC[C@]2(C)O | false

INPUT: Recorded call for "Cc1cccc(C)c1N" ?
OUTPUT: false

INPUT: What was the test verdict on "COS(=O)(=O)OC" ?
OUTPUT: false

INPUT: Record lookup: outcome of this test for "Cc1ccccc1O" ?
OUTPUT: false

INPUT: What did this assay record as the result for "C[C@]12CCC(=O)C=C1CC[C@@H]1[C@@H]2CC[C@]2(C)C(=O)CC[C@@H]12" ?
OUTPUT: true

INPUT: Per the records of this test, what outcome belongs to "c1cc2ccc3cccc4ccc(c1)c2c34" ?
OUTPUT: false

INPUT: Which outcome was assigned to "CC(C)(c1ccccc1)c1ccc(O)cc1" in this test?
OUTPUT: false

INPUT: What outcome does the record of this test show for "CCOCCOC(C)=O" ?
OUTPUT: false

---

# EXPERIMENT_NOTES: BSK_SAg_Proliferation: Cell Proliferation Assessment in the BioMAP Diversity Plus: SAg Assay (AID 2283095);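 note: relative cell number as total protein by SRB absorbance in sub-confluent culture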
# ASSAY_CONDITIONS: primary human HUVEC with PBMC
Calls of active or inactive are those of the source. The calls were made as follows: active = hit-call score of the fitted dose curve at least 0.9, where 1 is the maximum; inactive = score below 0.9.
Result category, one only: Yes (active), No (inactive)

INPUT: What outcome does the record of this test show for "CCNc1nc(NC(C)C)nc(SC)n1" ?
OUTPUT: No

INPUT: Hi team, can someone confirm the assay call for "CCC(C)(CC)c1cc(NC(=O)c2c(OC)cccc2OC)on1" ?
OUTPUT: No

---

# Read-out: Monocyte Chemoattractant Protein-1 (MCP1), CCL2 (gene 6347)
# EXPERIMENT_NOTES: BSK_SAg_MCP1: BioMAP Diversity Plus: SAg Assay for Monocyte Chemoattractant Protein-1 (MCP1) Biomarker Activity (AID 2283090)
# ASSAY_CONDITIONS: primary human HUVEC with PBMC; actives raise or lower the signal
Activity calls are given as the source filed them. How the source made its calls: active means hit-call score of the fitted dose curve at least 0.9, where 1 is the maximum; inactive means score below 0.9.
ASSAY_ENDPOINT: AC50

SMILES_CODE | ASSAY_ENDPOINT | RESULT
Nc1ccc(-c2ccc(N)cc2)cc1 | AC50 | inactive
Cc1cc(-c2ccc(N)c(C)c2)ccc1N | AC50 | inactive
Cc1cc2c3c(c1)C(c1ccccc1)=N[C@@H](NC(=O)c1ccncc1)C(=O)N3CC2 | AC50 | 20 µM (active)
ClC(Cl)=C(c1ccc(Cl)cc1)c1ccc(Cl)cc1 | AC50 | 39.2 µM (active)

---

# TGT: Estrogen receptor (Homo sapiens)
# EXPERIMENT_NOTES: ATG_ERa_TRANS: Attagene TRANS-FACTORIAL HepG2 Assay for human Estrogen Receptor alpha (ERa) (AID 2282970)
# ASSAY_CONDITIONS: HepG2 Attagene TRANS ERa GAL4 reporter, mRNA
Inconclusive results are not listed. Activity calls are given as the source filed them. The calls were made as follows: active = hit-call score of the fitted dose curve at least 0.9, where 1 is the maximum; inconclusive = response in the unintended direction; inactive = score below 0.9.
The reply should be one of these categories: active, inactive

SMILES_CODE | TGT | ASSIGNED_CATEGORY
CCCCCCCCCC[N+](C)(C)CCCCCCCCCC | Estrogen receptor (Homo sapiens) | inactive
CN(C)c1nc(=O)n(C2CCCCC2)c(=O)n1C | Estrogen receptor (Homo sapiens) | inactive
Nn1cnnc1 | Estrogen receptor (Homo sapiens) | active

We now examine a further compound.
INPUT: Recorded test outcome, item "Cc1cc2c3c(c1)C(c1ccccc1)=N[C@@H](NC(=O)c1ccncc1)C(=O)N3CC2"
OUTPUT: inactive

---

# TGT: Retinoic acid receptor alpha (Homo sapiens)
# EXPERIMENT_NOTES: ATG_DR5_RAR_CIS: Attagene CIS-FACTORIAL HepG2 Assay for human Retinoic Acid Receptor Alpha (RARE), DR5 submotif (AID 2282934)
# ASSAY_CONDITIONS: HepG2 Attagene cis-factorial RARE DR5 reporter, mRNA; actives raise or lower the signal
Active and inactive are the calls of the source. Rule for the calls: active = hit-call score of the fitted dose curve at least 0.9, where 1 is the maximum; inactive = score below 0.9.
Please answer using one outcome listed in active, inactive

Worked cases, answers included:
SMILES_CODE | ASSIGNED_CATEGORY
ClC1=C(Cl)[C@]2(Cl)[C@@H]3[C@H]4C[C@H]([C@@H]5O[C@H]45)[C@@H]3[C@@]1(Cl)C2(Cl)Cl | active
O=S(=O)(O)C(F)(F)C(F)(F)C(F)(F)C(F)(F)F | inactive

INPUT: Hi, do you know how "Nc1ccc(-c2ccc(N)cc2)cc1" came out in this test?
OUTPUT: inactive

INPUT: Assay outcome for "Oc1ccc(Cl)cc1Cl" : what was it?
OUTPUT: inactive

INPUT: I'd appreciate the recorded outcome for "CCCCCCCCCc1ccc(O)cc1" from this test.
OUTPUT: inactive
